# system name: hERG (KCNH2) (Homo sapiens, UniProt Q12809)
# Sequence (Q12809 whole entry): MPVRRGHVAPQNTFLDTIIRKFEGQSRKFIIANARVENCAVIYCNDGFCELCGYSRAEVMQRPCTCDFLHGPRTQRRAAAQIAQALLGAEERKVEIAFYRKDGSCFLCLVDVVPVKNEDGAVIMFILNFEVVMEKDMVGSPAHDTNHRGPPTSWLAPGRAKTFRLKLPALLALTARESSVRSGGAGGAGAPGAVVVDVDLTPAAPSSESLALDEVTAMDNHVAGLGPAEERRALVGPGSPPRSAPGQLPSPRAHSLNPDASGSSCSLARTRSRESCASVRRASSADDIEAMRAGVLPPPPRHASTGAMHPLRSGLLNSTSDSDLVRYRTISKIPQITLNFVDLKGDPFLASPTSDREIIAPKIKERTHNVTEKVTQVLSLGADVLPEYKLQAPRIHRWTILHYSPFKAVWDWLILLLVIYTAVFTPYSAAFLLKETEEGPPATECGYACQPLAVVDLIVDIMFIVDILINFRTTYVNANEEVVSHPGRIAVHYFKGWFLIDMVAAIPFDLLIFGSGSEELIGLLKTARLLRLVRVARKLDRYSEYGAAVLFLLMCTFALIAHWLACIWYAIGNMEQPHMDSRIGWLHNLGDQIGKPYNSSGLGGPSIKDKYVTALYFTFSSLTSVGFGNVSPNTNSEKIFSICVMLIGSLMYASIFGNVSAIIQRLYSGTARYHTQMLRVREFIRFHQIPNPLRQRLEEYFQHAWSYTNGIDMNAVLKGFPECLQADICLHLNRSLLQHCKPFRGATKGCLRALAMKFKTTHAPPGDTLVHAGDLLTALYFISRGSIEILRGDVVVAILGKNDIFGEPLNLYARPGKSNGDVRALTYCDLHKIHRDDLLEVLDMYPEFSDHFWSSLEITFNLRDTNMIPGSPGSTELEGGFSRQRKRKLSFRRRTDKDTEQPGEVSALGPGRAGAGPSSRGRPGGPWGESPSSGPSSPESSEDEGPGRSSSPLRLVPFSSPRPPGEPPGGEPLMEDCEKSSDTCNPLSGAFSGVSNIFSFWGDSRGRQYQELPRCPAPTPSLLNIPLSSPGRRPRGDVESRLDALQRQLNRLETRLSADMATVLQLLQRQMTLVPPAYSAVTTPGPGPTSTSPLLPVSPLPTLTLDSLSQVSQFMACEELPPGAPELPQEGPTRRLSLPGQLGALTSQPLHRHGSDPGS
# protocol notes: Displacement of [35S]-labeled MK499 from hERG at 10 uM
# experimental setup: probe [35S]-MK499
Recorded inhibition at 10 µM for the following compounds
Answer format: numeric, % implied, no suffix.

Some solved entries appear below for comparison.
compound="O=C(NCc1cc(Cl)cc(Cl)c1)[C@@H]1CCC[C@H]1C(O)CCc1ccc(OC(F)(F)F)cc1 (relative stereo)" endpoint_label="inhibition at 10 µM" units_of_measure=% measured_number=93
compound="O=C(NCc1cc(Cl)cc(Cl)c1)[C@@H]1CCC[C@H]1C(O)CCc1ccccc1 (relative stereo)" endpoint_label="inhibition at 10 µM" units_of_measure=% measured_number=91

Now, please, on to the next compound.
Q: Field: inhibition at 10 µM (hERG (KCNH2) (Homo sapiens, UniProt Q12809)). Entry: OC(CCc1ccccc1)[C@@H]1CCC[C@H]1COCc1cc(Cl)cc(Cl)c1 (relative stereo)
A: 59
